Values from PubChem BioAssay (NCI)

# Test system: MDA-MB-468 breast
# assay-name: NCI-60 one-dose screen, 48 h
# experimental-setup: 10 µM unless noted
The panel holds about 83,000 compounds, 20% with a hit somewhere; the sample as a whole holds those more often. Calls of active or inactive are those of the source. The calls were made as follows: active = growth percent below 10; inactive = the rest.
Allowed answers: active, inactive

compound | classification
COc1cc(-c2nc(SC(C)C)nc(Nc3ccccc3C)c2C#N)cc(OC)c1OC | inactive
CCCCN(CCCC)CC(O)c1ccc(OCc2ccccc2)c2ccccc12 (stereo not given) | inactive
CCOc1cccc2c(NC(C)CCCN(CC)CC)c(C)cnc12 (stereo not given) | inactive

Tell me the recorded outcome of this test for COc1ccc(-c2nc(/C=N/Nc3cc(C)nc4ccc(Cl)cc34)c(C)o2)cc1 . active

Tell me the recorded outcome of this test for COc1ccc2nc(NC(=O)CN3CCn4c(nnc4C(F)(F)F)C3)sc2c1 . inactive

Tell me the recorded outcome of this test for O=C1N(Cc2ccccc2Cl)c2ccccc2C12NN=C(c1cccc(Cl)c1)S2 (stereo not given) . active

Tell me the recorded outcome of this test for O=C(O)CC(Cl)C(Cl)CC(=O)O (stereo not given) . inactive

Tell me the recorded outcome of this test for CC(=O)Nc1ccc(CC#N)cc1Br . inactive

Tell me the recorded outcome of this test for Cc1nc(-c2cn3c(n2)-c2ccc(-c4cnn(C(C)(C)C(N)=O)c4)cc2OCC3)n(C(C)C)n1 . active

Tell me the recorded outcome of this test for CCOC(=O)c1cc(C(=O)c2cc(OC)c(OC)c(OC)c2)n2ncccc12 . active

---

# Test system: MDA-MB-468 breast
# assay-name: NCI-60 one-dose screen, 48 h
# experimental-setup: 10 µM unless noted
This is part of a sample that, as a whole, favours compounds with a hit. Of some 83,000 tested, about 20% had one in any assay. Active and inactive are the calls of the source. Rule for the calls: active = growth percent below 10; inactive = the rest.
Allowed answers: active, inactive

Below, 5 molecules whose answers are already recorded.
molecule | classification
CCOC(=O)c1c(C)nc2c(c1N)CC(=O)N2Cc1cc(F)cc(Cl)c1 | inactive
Nc1ccccc1C(=O)Nc1ccc(Cl)cc1Cl | inactive
CCCCCCCCCCCC(=O)[O][Sn]([CH2]CCC)([CH2]CCC)[CH2]CCC | active
COc1cc(-c2cc(=O)oc3cc(O)ccc23)cc(OC)c1OC | inactive
c1ccc(-c2c(-c3ccccc3)[n+](Cc3ccc4ccccc4c3)cn2Cc2ccc3ccccc3c2)cc1 | active

Tell me the recorded outcome of this test for O=C(Nc1cccc(Cl)c1)Nc1nccs1 . active

Tell me the recorded outcome of this test for COc1cc2cc(Oc3ccc(NC(=O)Nc4cccc(C(F)(F)F)c4)cc3)c(C)nc2cc1OCCN1CCOCC1 . active

Tell me the recorded outcome of this test for C=C1C(=O)O[C@H]2[C@H]1CC/C(COC(=O)NCc1ccccc1OC)=C\CC[C@@]1(C)O[C@@H]21 . inactive

Tell me the recorded outcome of this test for N#Cc1c(Nc2ccc(F)cc2)n[nH]c1-c1cccs1 . inactive

Tell me the recorded outcome of this test for COc1ccc(/C=C/c2nc(N3CCOCC3)c3cc(F)c(F)cc3n2)cc1OC . active

---

# Test system: MDA-MB-468 breast
# assay-name: NCI-60 one-dose screen, 48 h
# experimental-setup: 10 µM unless noted
About 83,000 compounds went through this panel and 20% of them were active in at least one assay; those are over-represented in the sample as a whole. Active and inactive are the calls of the source. How the source made its calls: active means growth percent below 10; inactive means the rest.
Allowed answers: true (1) = active, false (0) = inactive

molecule | classification
Cc1ccc(/C=N/Nc2nc(Nc3ccccc3)nc(-n3nc(C)cc3C)n2)cc1 | false (0)
CC(C)(O)c1cncc(-c2ccc3ncnc(N4CCc5cc(F)c(Cl)cc54)c3c2)c1 | true (1)
CCOC(=O)c1sc(/N=C2\NC(=O)/C(=C/c3ccc(N4CCN(C)CC4)cc3)S2)nc1C | false (0)
COc1ccc2c(c1)C(C)Cc1c(ncnc1-n1cnc3ccccc31)N2C (stereo not given) | false (0)
Cc1nn(-c2ccc(F)cc2)c2ncnc(Oc3ccc(NC(=O)Nc4ccc(Cl)c(C(F)(F)F)c4)cc3)c12 | false (0)

Tell me the recorded outcome of this test for COc1cc(/C=C\c2cc(/C=C\c3ccc(O)c(OC)c3)n(C(=O)COc3ccccc3)n2)ccc1O . true (1)

Tell me the recorded outcome of this test for C/C=C/[C@@H]1C=C[C@@H]2C[C@H](C)CC[C@H]2[C@]1(C)/C(O)=C1/C(=O)[C@H](CO)N(C)C1=O . false (0)

Tell me the recorded outcome of this test for NC(CSC(c1ccccc1)(c1ccccc1)c1ccccc1)C(=O)NCC(=O)O (stereo not given) . false (0)

Tell me the recorded outcome of this test for Cc1[nH]c(C(=O)Nc2ccc(C(N)=O)cc2OC(C)C)c(Cl)c1Cl . false (0)

Tell me the recorded outcome of this test for N=C(N)c1ccc(-c2ccc(/C=C/c3ccccc3)s2)cc1 . true (1)

Tell me the recorded outcome of this test for O=C(Nc1cccc(Cl)c1)Nc1cccc(Cn2c(=O)[nH]c3ccc(Oc4ncccn4)cc3c2=O)c1 . true (1)

Tell me the recorded outcome of this test for COc1ccccc1/C=C1\Oc2ccc(O)c(O)c2C1=O . false (0)

Tell me the recorded outcome of this test for Cc1nccc2c3ccc(OCc4cn(-c5ccc(Cl)cc5)nn4)cc3n(CC(C)C)c12 . true (1)

Tell me the recorded outcome of this test for NC(=S)NNC1CCCCC1 . false (0)

---

# Test system: MDA-MB-468 breast
# assay-name: NCI-60 one-dose screen, 48 h
# experimental-setup: 10 µM unless noted
About 83,000 compounds went through this panel and 20% of them were active in at least one assay; those are over-represented in the sample as a whole. Activity calls are given as the source filed them. Rule for the calls: active = growth percent below 10; inactive = the rest.
Allowed answers: Y for active, N for inactive

molecule | classification
Cc1ccc(N2C(=O)CCC2=O)cc1 | N
CN1CCN(c2ccc(Nc3c4ccccc4nc4ccccc34)cc2)CC1 | N
O=C(/C=C/c1cccc(F)c1)c1cccc(OCCCCOc2cccc(C(=O)/C=C/c3cccc(F)c3)c2)c1 | N
COc1ccc(-c2nc3cc(Cl)c(Cl)cc3n2CC(=O)N=Nc2c(O)[nH]c3ccc(OC)cc23)cc1 | N

Tell me the recorded outcome of this test for C=C1C(=O)O[C@H]2[C@H]1CC/C(COC(=O)/C=C/C(=O)NCc1ccc(Cn3c(=O)sn(-c4ccccc4)c3=O)cc1)=C\CC[C@@]1(C)O[C@@H]21 . Y

Tell me the recorded outcome of this test for O=C(CCCCCCN1CC(=O)N2[C@@H](c3ccccc3)c3[nH]c4ccccc4c3C[C@H]2C1=O)NO . N

Tell me the recorded outcome of this test for COc1cc(-c2cc(/C=C/C(=O)c3ccc(N)cc3)[nH]n2)cc(OC)c1OC . Y

Tell me the recorded outcome of this test for CCOC(=O)c1cc(C(=O)c2ccc(OC)cc2)n2ccc(/C=C/c3cc[n+](CC(=O)c4ccc(OC)cc4)cc3)cc12 . Y

Tell me the recorded outcome of this test for O=C(CCCCCCCCC(=O)N/N=C\c1ccccc1O)N/N=C\c1ccccc1O . Y

---

# System: MDA-MB-468 breast
# assay-name: NCI-60 one-dose screen, 48 h (100 = growth as untreated, 0 = no growth, -100 = all killed)
# experimental-setup: 10 µM unless noted
Compounds without any hit were thinned out: in the full panel of roughly 83,000, 20% have a hit.
measure: growth (%)
Quick reminder: number only, in %, skip the unit.

Look over these answered cases.
molecule | unit-text | growth
CCN1CCN(CC(=O)Nc2nc3ccc(NCc4ccc(Br)cc4)cc3s2)CC1 | % | 61.1
COc1cc(/C=C/C(=O)N2CCN(C(=O)/C=C/c3ccccc3)CC2)cc(OC)c1OC | % | 107
Cc1ccncc1C(N)=O | % | 93.8

// query growth value for entry CCOC(=O)c1c2c(n3cccc(F)c13)C(=O)c1ncccc1C2=O 39.6

// query growth value for entry COc1ccc(-n2ncn(CCCCCCn3cnn(-c4ccc(OC)cc4)c3=O)c2=O)cc1 84.8

// query growth value for entry CCc1ccc(-c2nnc(COc3ccc(-c4nc5ccccc5[nH]4)cc3OC)o2)cc1 86.9

// query growth value for entry NS(=O)(=O)c1ccc(-n2nc(C(=O)N/N=C\c3ccc(F)cc3)cc2-c2ccc(Cl)cc2)cc1 112

// query growth value for entry O=C(Nc1ccc(OCc2nnc(-c3ccccc3)o2)c(F)c1)Nc1ccc(Cl)c(C(F)(F)F)c1 1.01

// query growth value for entry c1cncc(CNc2ccccc2-c2nnc(Nc3ccc4c(c3)OCCO4)o2)c1 -0.422

// query growth value for entry N#Cc1c(-c2ccc(F)cc2)n2c(nc1=O)SC(=O)C2=O 94.5

---

# System: MDA-MB-468 breast
# assay-name: NCI-60 one-dose screen, 48 h (100 = growth as untreated, 0 = no growth, -100 = all killed)
# experimental-setup: 10 µM unless noted
The panel holds about 83,000 compounds, 20% with a hit somewhere; the sample as a whole holds those more often.
Decide using growth alone. Strictly below 70%: Yes. Equal to or above 70%: No.

Answer whether the compound COc1cc(C2CC(=O)Nc3c2ccc2ccccc32)cc(Br)c1OC (stereo not drawn) has growth strictly less than 70% Yes

Answer whether the compound O=C(CC12CC3CC(CC(C3)C1)C2)NCCOCCOCCOCCNC(=O)c1cc2c(o1)C(=O)c1ccccc1C2=O has growth strictly less than 70% Yes

Answer whether the compound CC1(C)[C@@H](OC(=O)CCC(=O)O)CC[C@]2(C)[C@H]3C(=O)C=C4[C@@H]5C[C@@](C)(C(=O)O)CC[C@]5(C)CC[C@@]4(C)[C@]3(C)CC[C@@H]12 has growth strictly less than 70% Yes

Answer whether the compound O=C(Nc1ccc(OCc2nnc(-c3ccc(Cl)cc3)o2)c(F)c1)Nc1ccc(Cl)c(C(F)(F)F)c1 has growth strictly less than 70% Yes

Answer whether the compound CCCCNC(=O)c1cc([N+](=O)[O-])cc(C2CCCCC2)c1O has growth strictly less than 70% Yes

Answer whether the compound COc1cc2oc(-c3cccc(C(=O)Nc4ccc(Cl)cc4)c3)cc(=O)c2c(OCCN)c1OC has growth strictly less than 70% Yes

Answer whether the compound Cc1nnc(-n2c(O)cc(=O)n(-c3ccccc3)c2=S)nc1/C=C/c1ccc(N(C)C)cc1 has growth strictly less than 70% Yes

Answer whether the compound O=C(CSc1nnc(-c2ccc(Cl)cc2)n1-c1ccccc1)Nc1ccc(Br)cc1 has growth strictly less than 70% Yes

Answer whether the compound CCCS(=O)(=O)Nc1cccc(Nc2ncnc3cc(NC(=O)CCl)ccc23)c1Cl has growth strictly less than 70% Yes

Answer whether the compound Nc1cc(-c2c[nH]c3ccc(F)cc23)nc2cc(-c3c[nH]c4ccc(F)cc34)nn12 has growth strictly less than 70% No
